Known IC50 of a selection of compounds
- MEASUREMENT_TARGET: Casein kinase I isoform delta (Rattus norvegicus, UniProt Q06486, M82F)
- Sequence (Q06486 whole entry M82F, canonical isoform): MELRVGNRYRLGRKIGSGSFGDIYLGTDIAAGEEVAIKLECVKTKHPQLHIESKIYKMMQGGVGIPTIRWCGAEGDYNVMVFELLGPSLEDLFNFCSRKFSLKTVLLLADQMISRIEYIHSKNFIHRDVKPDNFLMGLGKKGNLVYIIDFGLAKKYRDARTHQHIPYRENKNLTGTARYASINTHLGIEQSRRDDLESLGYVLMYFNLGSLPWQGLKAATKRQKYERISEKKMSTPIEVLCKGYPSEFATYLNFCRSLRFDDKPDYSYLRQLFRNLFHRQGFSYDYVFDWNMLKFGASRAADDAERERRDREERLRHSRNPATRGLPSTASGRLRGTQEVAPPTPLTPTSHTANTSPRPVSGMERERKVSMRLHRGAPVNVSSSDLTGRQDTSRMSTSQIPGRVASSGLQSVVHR
- ASSAY_OVERVIEW: Inhibition of rat GST-tagged CK1delta M82F mutant at 10 uM using alpha-casein as substrate after 30 mins in presence of [gamma-32P]-ATP by Cherenkov counting method
Report as a plain number; the unit µM is understood.

Below are worked cases with known answers.
1. Cc1ccc2nc(NC(=O)CSc3nc4c(c(=O)n3-c3ccccc3)SCC4)sc2c1 | 0.04
2. Cc1ccc2nc(NC(=O)CSc3nc4c(c(=O)n3-c3ccc(F)cc3)SCC4)sc2c1 | 0.15

Below: the item to evaluate.
Supply IC50 value. Item: `COc1ccc(Cn2c(SCC(=O)Nc3nc4ccc(C(F)(F)F)cc4s3)nc3c(c2=O)SCC3)cc1` 0.09

====

- MEASUREMENT_TARGET: Casein kinase I isoform epsilon (Homo sapiens, UniProt P49674)
- Sequence (P49674 whole entry, canonical isoform): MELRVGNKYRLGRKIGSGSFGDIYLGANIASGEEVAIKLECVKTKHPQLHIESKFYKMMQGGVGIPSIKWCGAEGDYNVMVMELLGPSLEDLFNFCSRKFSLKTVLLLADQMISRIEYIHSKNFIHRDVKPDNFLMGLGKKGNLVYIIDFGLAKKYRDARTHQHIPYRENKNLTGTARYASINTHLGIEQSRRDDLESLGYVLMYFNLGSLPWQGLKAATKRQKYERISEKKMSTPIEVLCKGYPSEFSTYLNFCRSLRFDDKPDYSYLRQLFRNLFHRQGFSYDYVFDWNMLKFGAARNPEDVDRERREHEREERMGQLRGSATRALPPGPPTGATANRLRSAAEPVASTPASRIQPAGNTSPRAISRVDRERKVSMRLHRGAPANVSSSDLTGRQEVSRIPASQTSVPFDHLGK
- ASSAY_OVERVIEW: Inhibition of human recombinant CK1epsilon using alpha-casein as substrate after 30 mins in presence of [gamma-32P]-ATP by Cherenkov counting method
REPORTED_METRIC: IC50 (µM)
Write it as a number; the unit µM goes unstated.

Reference set (3 entries):
1) O=C(CSc1nc2c(c(=O)n1Cc1ccccc1)SCC2)Nc1nc2ccc(C(F)(F)F)cc2s1 | 1.41
2) COc1ccc(Cn2c(SCC(=O)Nc3nc4ccc(C(F)(F)F)cc4s3)nc3c(c2=O)SCC3)cc1 | 0.56
3) Cc1ccc2nc(NC(=O)CSc3nc4c(c(=O)n3-c3ccccc3)SCC4)sc2c1 | 4.03

Please find the next molecule below.
Tell me measured IC50 for `COc1ccccc1-n1c(SCC(=O)Nc2nc3ccc(C)cc3s2)nc2c(c1=O)SCC2` please. 7.07

====

- MEASUREMENT_TARGET: Casein kinase I isoform delta (Homo sapiens, UniProt P48730)
- Sequence (P48730 whole entry, canonical isoform): as the sequence (Q06486 whole entry M82F, canonical isoform) above, with F82M, V381I counted along it
- ASSAY_OVERVIEW: Inhibition of CK1delta in HEK293T cells assessed as stimulation of Wnt/beta-catenin signaling after 22 hrs in presence of Wnt3A-conditioned medium by Super-top flash reporter gene assay
REPORTED_METRIC: EC50 (µM)
The reply should be a number in µM, with the unit left off.

Tell me its EC50 given `COc1ccc(Cn2c(SCC(=O)Nc3nc4ccc(C(F)(F)F)cc4s3)nc3c(c2=O)SCC3)cc1` as the entry. 1.47

====

# key: entry, value: pIC50
- MEASUREMENT_TARGET: Casein kinase I isoform delta (Rattus norvegicus, UniProt Q06486, M82F)
- ASSAY_OVERVIEW: Inhibition of rat GST-tagged CK1delta M82F mutant at 10 uM using alpha-casein as substrate after 30 mins in presence of [gamma-32P]-ATP by Cherenkov counting method
Note: pIC50 values are expressed as the negative base-10 logarithm of concentration in M.

Worked examples follow.
1. O=C(CSc1nc2c(c(=O)n1Cc1ccccc1)SCC2)Nc1nc2ccc(C(F)(F)F)cc2s1 | 6.57
2. O=C(CSc1nc2c(c(=O)n1-c1ccccc1)SCC2)Nc1nc2ccc(C(F)(F)F)cc2s1 | 6.68
3. COc1cccc(Cn2c(SCC(=O)Nc3nc4ccc(C(F)(F)F)cc4s3)nc3c(c2=O)SCC3)c1OC | 6.68
4. Cc1ccc2nc(NC(=O)CSc3nc4c(c(=O)n3Cc3ccccc3)SCC4)sc2c1 | 7.22

Here is another molecule to look at.
Please give the documented pIC50 of `COc1ccccc1-n1c(SCC(=O)Nc2nc3ccc(C)cc3s2)nc2c(c1=O)SCC2` 6.85

====

Catalogue of molecules with associated pIC50
- MEASUREMENT_TARGET: Casein kinase I isoform delta (Rattus norvegicus, UniProt Q06486)
- Sequence (Q06486 whole entry, canonical isoform): as the sequence (Q06486 whole entry M82F, canonical isoform) above, with F82M counted along it
- ASSAY_OVERVIEW: Inhibition of full-length rat GST-tagged CK1delta using alpha-casein as substrate after 30 mins in presence of [gamma-32P]-ATP by Cherenkov counting method
Would you please state pIC50, meaning minus log10 of the concentration in mol/L, as a bare number?

1. O=C(CSc1nc2c(c(=O)n1Cc1ccc(C(F)(F)F)cc1)SCC2)Nc1nc2ccc(C(F)(F)F)cc2s1 | 6.48

Write pIC50 of `COc1ccccc1-n1c(SCC(=O)Nc2nc3ccc(C)cc3s2)nc2c(c1=O)SCC2` ; system used: Casein kinase I isoform delta (Rattus norvegicus, UniProt Q06486) 5.97

// fetch pIC50 for `Cc1ccc2nc(NC(=O)CSc3nc4c(c(=O)n3-c3ccccc3)SCC4)sc2c1` ; system: Casein kinase I isoform delta (Rattus norvegicus, UniProt Q06486) 6.03

Give measured pIC50 for `COc1ccc(Cn2c(SCC(=O)Nc3nc4ccc(C(F)(F)F)cc4s3)nc3c(c2=O)SCC3)cc1` (Casein kinase I isoform delta (Rattus norvegicus, UniProt Q06486)). 6.39

State the measured pIC50 (Casein kinase I isoform delta (Rattus norvegicus, UniProt Q06486)) of `O=C(CSc1nc2c(c(=O)n1-c1ccccc1)SCC2)Nc1nc2ccc(C(F)(F)F)cc2s1` 6.18

Report value only: pIC50, Casein kinase I isoform delta (Rattus norvegicus, UniProt Q06486), `COc1cccc(Cn2c(SCC(=O)Nc3nc4ccc(C(F)(F)F)cc4s3)nc3c(c2=O)SCC3)c1OC` 6.12

Specify pIC50 for `O=C(CSc1nc2c(c(=O)n1Cc1cccc(C(F)(F)F)c1)SCC2)Nc1nc2ccc(C(F)(F)F)cc2s1` , system Casein kinase I isoform delta (Rattus norvegicus, UniProt Q06486). 5.99

====

- MEASUREMENT_TARGET: Casein kinase I isoform epsilon (Homo sapiens)
- ASSAY_OVERVIEW: Inhibition of human recombinant CK1epsilon using alpha-casein as substrate after 30 mins in presence of [gamma-32P]-ATP by Cherenkov counting method
Quick reference: pIC50 of the listed items.
Just so you know, pIC50 here is -log10 of the concentration in molar units; reply with that number alone.

1. O=C(CSc1nc2c(c(=O)n1-c1ccccc1)SCC2)Nc1nc2ccc(C(F)(F)F)cc2s1 | 5.39
2. Cc1ccc2nc(NC(=O)CSc3nc4c(c(=O)n3Cc3ccccc3)SCC4)sc2c1 | 5.13

--- query ---
Using known records, supply pIC50 for `COc1cccc(Cn2c(SCC(=O)Nc3nc4ccc(C(F)(F)F)cc4s3)nc3c(c2=O)SCC3)c1OC` 5.91
